- assay: Mixed type inhibition of Sporosarcina pasteurii CCM 2056 urease using urea as substrate preincubated for 2 hrs by indophenol blue detection based phenol-hypochlorite method
pKi: −log10 of the molar value.
Would you mind labelling by pKi? At or over 5 is true, under is false.

Is pKi for O=C(O)/C(=C/c1ccccc1)CCCCP(=O)(O)O at or above 5? true

Is pKi for COC(=O)/C(=C/c1ccccc1)CCCP(=O)(O)O at or above 5? false

Is pKi for COC(=O)/C(=C/c1ccc(F)cc1)CCCP(=O)(O)O at or above 5? false

Is pKi for COC(=O)/C(=C/c1ccc(OC)cc1)CCCP(=O)(O)O at or above 5? true

Is pKi for O=C(O)/C(=C/c1ccccc1)CCCP(=O)(O)O at or above 5? true

More entries:
Is pKi for COC(=O)/C(=C/c1ccc(OC)cc1)CCCCP(=O)(O)O at or above 5? false

Is pKi for COC(=O)/C(=C/c1ccc(F)cc1)CCCCP(=O)(O)O at or above 5? false

Is pKi for COC(=O)/C(=C/c1ccc(Cl)cc1)CCCCP(=O)(O)O at or above 5? true

Is pKi for O=C(O)/C(=C/c1ccc(Cl)cc1)CCCCP(=O)(O)O at or above 5? true

Is pKi for Cc1ccc(/C=C(\CCCP(=O)(O)O)C(=O)O)cc1 at or above 5? false

----------
- Test system: Sporosarcina pasteurii
- assay: Slow binding inhibition of Sporosarcina pasteurii CCM 2056 urease assessed as residence time using urea as substrate after 120 mins by indophenol blue detection based phenol-hypochlorite method
experimental endpoint: TIME
Remember to put the unit after the number in your answer.

Example cases with answers are listed next.
Field: TIME (Sporosarcina pasteurii). Entry: O=C(O)/C(=C/c1ccc(F)cc1)CCCCP(=O)(O)O 0.206 h

Field: TIME (Sporosarcina pasteurii). Entry: COC(=O)/C(=C/c1ccc(OC)cc1)CCCP(=O)(O)O 0.114 h

Field: TIME (Sporosarcina pasteurii). Entry: COC(=O)/C(=C/c1ccc(Cl)cc1)CCCCP(=O)(O)O 0.135 h

More entries:
Field: TIME (Sporosarcina pasteurii). Entry: O=C(O)/C(=C/c1ccccc1)CCCP(=O)(O)O 0.407 h

----------
Entries annotated with measured log10 IC50
- assay: Inhibition of Sporosarcina pasteurii CCM 2056 urease using urea as substrate after 10 mins by indophenol blue detection based phenol-hypochlorite method
Log10 applied to IC50; unit prior to transform: µM.

Example cases with answers are listed next.
// lookup log10 IC50 for COC(=O)/C(=C/c1ccc(Cl)cc1)CCCP(=O)(O)O 2.04

// lookup log10 IC50 for COC(=O)/C(=C/c1ccccc1)CCCP(=O)(O)O 2.65

// lookup log10 IC50 for COc1ccc(/C=C(\CCCCP(=O)(O)O)C(=O)O)cc1 1.22

// lookup log10 IC50 for Cc1ccc(/C=C(\CCCCP(=O)(O)O)C(=O)O)cc1 0.97

// lookup log10 IC50 for O=C(O)/C(=C/c1ccc(Cl)cc1)CCCCP(=O)(O)O 0.77

// lookup log10 IC50 for O=C(O)/C(=C/c1ccccc1)CCCP(=O)(O)O 0.49

// lookup log10 IC50 for O=C(O)/C(=C/c1ccc(Cl)cc1)CCCP(=O)(O)O 0.40

// lookup log10 IC50 for COC(=O)/C(=C/c1ccc(C)cc1)CCCP(=O)(O)O 2.42

More entries:
// lookup log10 IC50 for O=C(O)/C(=C/c1ccc(F)cc1)CCCCP(=O)(O)O 1.00

// lookup log10 IC50 for Cc1ccc(/C=C(\CCCP(=O)(O)O)C(=O)O)cc1 1.48

// lookup log10 IC50 for O=C(O)/C(=C/c1ccccc1)CCCCP(=O)(O)O 0.69

// lookup log10 IC50 for COC(=O)/C(=C/c1ccc(C)cc1)CCCCP(=O)(O)O 2.47

// lookup log10 IC50 for COC(=O)/C(=C/c1ccc(OC)cc1)CCCCP(=O)(O)O 1.39

// lookup log10 IC50 for O=C(O)/C(=C/c1ccc(F)cc1)CCCP(=O)(O)O 0.69

// lookup log10 IC50 for COc1ccc(/C=C(\CCCP(=O)(O)O)C(=O)O)cc1 1.00

// lookup log10 IC50 for COC(=O)/C(=C/c1ccc(Cl)cc1)CCCCP(=O)(O)O 1.77

----------
- System: Sporosarcina pasteurii
- assay: Slow binding inhibition of Sporosarcina pasteurii CCM 2056 urease assessed as dissociation rate constant using urea as substrate after 120 mins by indophenol blue detection based phenol-hypochlorite method
experimental endpoint: K (s⁻¹)
Write the answer as a number in s⁻¹, unit excluded.

Example cases with answers are listed next.
// lookup K for O=C(O)/C(=C/c1ccc(F)cc1)CCCCP(=O)(O)O 0.00135

// lookup K for COC(=O)/C(=C/c1ccc(Cl)cc1)CCCCP(=O)(O)O 0.00206

// lookup K for COC(=O)/C(=C/c1ccc(OC)cc1)CCCP(=O)(O)O 0.00244

In the following, a different compound is considered.
// lookup K for O=C(O)/C(=C/c1ccccc1)CCCP(=O)(O)O 0.000682

----------
- assay: Inhibition of Sporosarcina pasteurii CCM 2056 urease using urea as substrate after 10 mins by indophenol blue detection based phenol-hypochlorite method
experimental endpoint: IC50 (µM)
Write the answer as a number in µM, unit excluded.

Example cases with answers are listed next.
// lookup IC50 for COC(=O)/C(=C/c1ccc(OC)cc1)CCCP(=O)(O)O 35.3

// lookup IC50 for COC(=O)/C(=C/c1ccc(F)cc1)CCCCP(=O)(O)O 164

// lookup IC50 for COC(=O)/C(=C/c1ccccc1)CCCCP(=O)(O)O 55

More entries:
// lookup IC50 for COC(=O)/C(=C/c1ccc(F)cc1)CCCP(=O)(O)O 221

Data credit: ChEMBL document CHEMBL4265986
